Values from paper PMC5540273

test system: ERK1; construct: gene MAPK3; conditions: concentration: 1 μM,replicates: in singlicate; n = 1;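 note: KINOMEscan kinase panel screen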
# %Inh listing for each entry below
endpoint: %Inh (%)

[
  {
    "compound": "C=CC(=O)Nc1cc2c(Nc3ccc(F)c(Cl)c3)ncnc2cc1OCCCN1CCOCC1",
    "systemTested": "ERK1",
    "unitString": "%",
    "measuredValue": 0
  },
  {
    "compound": "CN(C)CC(O)COc1ccc(Nc2nccc(-c3cnn4nc(N5CCOCC5)ccc34)n2)cc1 (centres unmarked)",
    "systemTested": "ERK1",
    "unitString": "%",
    "measuredValue": 0
  },
  {
    "compound": "Cc1cc(C(=O)Nc2ccc(Oc3ccc4nc(NC(=O)C5CC5)cn4n3)cc2)nn1-c1ccccc1",
    "systemTested": "ERK1",
    "unitString": "%",
    "measuredValue": 0
  },
  {
    "compound": "Cc1cc2cn[nH]c2cc1-c1cccc2c(N)c(C(N)=O)nnc12",
    "systemTested": "ERK1",
    "unitString": "%",
    "measuredValue": 22
  },
  {
    "compound": "C[C@@H]1CCN(C(=O)CC#N)C[C@@H]1N(C)c1ncnc2[nH]ccc12",
    "systemTested": "ERK1",
    "unitString": "%",
    "measuredValue": 0
  }
]
